// data source = patent US20110165063A1

target: T1, recombinant human IL-1α (human, UniProt P01583 113-271)
T1 sequence: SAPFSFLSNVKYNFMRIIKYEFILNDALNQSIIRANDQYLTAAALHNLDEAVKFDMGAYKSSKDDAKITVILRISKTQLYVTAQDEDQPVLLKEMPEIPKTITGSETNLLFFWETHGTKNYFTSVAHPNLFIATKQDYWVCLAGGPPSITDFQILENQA
method-description: cell-based or functional assay
experimental-endpoint: IC50 for Antibody (PM), MRC-5 bioassay (IL-1α-stimulated production of IL-8) (nM)

- binder: "h3D12.16 (antibody, V domains shown, also called humanized 3D12 antibody h3D12.16; VH H3D12VH.2A / VL H3D12VK.1C) VH: EIQLVQSGAEVKKPGASVKVSCKASGYTFTNYGMNWVRQAPGQDLERMAWINTYTGESTYADDFKGRFTFTLDTSTSTAYMELSSLRSEDTAVYFCARGIYYYGSSYAMDYWGQGTTVTVSS VL: DIQMTQSPSSLSASVGDRVTITCRASQDISNCLNWYQQKPGKTPKLLIYYTSRLHSGVPSRFSGSGSGTDYTFTISSLQPEDIATYFCQQGKTLPYAFGQGTKLEIK"
  unit-text: "nM"
  observed-value: 1.36
- binder: "murine anti-human IL-1α monoclonal antibody 3D12 (antibody, V domains shown) VH: QIQLVQSGPELKKPGETVKISCKASGYTFRNYGMNWVKQAPGKDLKRMAWINTYTGESTYADDFKGRFAFSLETSASTAYLQINNLKNEDTATYFCARGIYYYGSSYAMDYWGQGTSVTVSS VL: IQMTQTTSSLSASLGDRVTISCRASQDISNCLNWYQQKPDGTVKLLIYYTSRLHSGVPSRFSGSGSGTDYSLTISNLEQEDIATYFCQQGKTLPYAFGGGTKLEINR"
  unit-text: "nM"
  observed-value: 1.88
- binder: "h3D12.r37 (antibody, V domains shown) VH: EIQLVQSGAEVKKPGASVKVSCKASGYTFKYYGMNWVRQAPGQGLERMGWINTYTGESRYADDFKGRVTFTLDTSTSTAYMELSSLRSEDTAVYYCARDIYYFGSDYAMDYWGQGTTVTVSS VL: DIQMTQSPSSLSASVGDRVTITCRASQDISNRLNWYQQKPGKAPKLLIYYASRLKPGVPSRFSGSGSGTDYTFTISSLQPEDIATYFCQQGNTPPYTFGQGTKLEIK"
  unit-text: "nM"
  observed-value: 0.0014
- binder: "h3D12.r16 (antibody, V domains shown) VH: EVQLVQSGAEVKKPGASVKVSCKASGYTFKYYGMNWVRQAPGQGLERMGWINTYTGQSTYADDFKGRVTFTLDTSTSTAYMELSSLRSEDTAVYYCARDIYYYGSDFAMDYWGQGTTVTVSS VL: DIQMTQSPSSLSASVGDRVTITCRASQDISNMLNWYQQKPGKAPKLLIYYTSRLKPGVPSRFSGSGSGTDYTFTISSLQPEDIATYFCQQGKTAPYTFGQGTKLEIK"
  unit-text: "nM"
  observed-value: 0.0006
